System: MPNST complex spheroid with HUVEC/MSC, growth, % test/control
ASSAY NAME: Anticancer human tumor MPNST cell line growth inhibition [Asc];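 also: compounds left on spheroids for seven days before reading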
ASSAY CONTEXT: second compound 0.03 µM; first compound 0.1 µM; stronger effect = lower value
Define the label as satisfied when viability, T/C is strictly less than 80% and as not satisfied in all remaining cases.

Worked examples follow.
COc1c(OCCCN2CCOCC2)ccc2c3n(c(=NC(=O)c4cnc(N)nc4)nc12)CCN3 + CCN1C(C(=O)NC23CCC(C(=O)O)(CC2)CC3)C(c2cccc(Cl)c2F)C2(C(=O)Nc3cc(Cl)ccc32)C12CCCCC2	satisfied
C=CC(=O)N1CCN(c2nc(=O)n(-c3c(C)ccnc3C(C)C)c3nc(-c4c(O)cccc4F)c(F)cc23)C(C)C1 (stereo unspecified) + CCN1C(C(=O)NC23CCC(C(=O)O)(CC2)CC3)C(c2cccc(Cl)c2F)C2(C(=O)Nc3cc(Cl)ccc32)C12CCCCC2	satisfied
NC1CCC(NC2CC2c2ccccc2)CC1 (stereo unspecified) + CCN1C(C(=O)NC23CCC(C(=O)O)(CC2)CC3)C(c2cccc(Cl)c2F)C2(C(=O)Nc3cc(Cl)ccc32)C12CCCCC2	not satisfied

Enquiry: Would you kindly verify if viability, T/C of CCN1CCN(Cc2ccc(Nc3ncc(F)c(-c4cc(F)c5nc(C)n(C(C)C)c5c4)n3)nc2)CC1 + CCN1C(C(=O)NC23CCC(C(=O)O)(CC2)CC3)C(c2cccc(Cl)c2F)C2(C(=O)Nc3cc(Cl)ccc32)C12CCCCC2 is strictly less than 80%?
Return: satisfied

Enquiry: Would you kindly verify if viability, T/C of Cn1ncnc1[C@H]1c2n[nH]c(=O)c3cc(F)cc(c23)N[C@@H]1c1ccc(F)cc1 + CCN1C(C(=O)NC23CCC(C(=O)O)(CC2)CC3)C(c2cccc(Cl)c2F)C2(C(=O)Nc3cc(Cl)ccc32)C12CCCCC2 is strictly less than 80%?
Return: satisfied

Enquiry: Would you kindly verify if viability, T/C of O=C(c1cc(Cc2n[nH]c(=O)c3ccccc23)ccc1F)N1CCN(C(=O)C2CC2)CC1 + CCN1C(C(=O)NC23CCC(C(=O)O)(CC2)CC3)C(c2cccc(Cl)c2F)C2(C(=O)Nc3cc(Cl)ccc32)C12CCCCC2 is strictly less than 80%?
Return: not satisfied

====

Tested on: MPNST complex spheroid with HUVEC/MSC, growth, % test/control
ASSAY NAME: Anticancer human tumor MPNST cell line growth inhibition [Asc];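 also: compounds left on spheroids for seven days before reading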
ASSAY CONTEXT: curve of first compound; second compound 0.1 µM
READOUT LABEL: IC50

CCN1CCN(Cc2ccc(Nc3ncc(F)c(-c4cc(F)c5nc(C)n(C(C)C)c5c4)n3)nc2)CC1 + CNC(C)C(=O)NC1CN(S(=O)(=O)c2cccc(S(=O)(=O)N3CCC4CCC(C(=O)NC(c5ccccc5)c5ccccc5)N4C(=O)C(NC(=O)C(C)NC)C3)c2)CCC2CCC(C(=O)NC(c3ccccc3)c3ccccc3)N2C1=O	> 1000 nM

Enquiry: Reported IC50 for O=C(c1cc(Cc2n[nH]c(=O)c3ccccc23)ccc1F)N1CCN(C(=O)C2CC2)CC1 + CNC(C)C(=O)NC1CN(S(=O)(=O)c2cccc(S(=O)(=O)N3CCC4CCC(C(=O)NC(c5ccccc5)c5ccccc5)N4C(=O)C(NC(=O)C(C)NC)C3)c2)CCC2CCC(C(=O)NC(c3ccccc3)c3ccccc3)N2C1=O : what is it?
Return: 2460 nM

Enquiry: Reported IC50 for CCN1C(C(=O)NC23CCC(C(=O)O)(CC2)CC3)C(c2cccc(Cl)c2F)C2(C(=O)Nc3cc(Cl)ccc32)C12CCCCC2 (stereo not drawn) + Cc1c(S(C)(=O)=O)c(-c2cc(F)cc(N3CCN(c4ccc(NS(=O)(=O)c5ccc(NC(CCN6CCC(C(=O)OCCCP(=O)(O)O)CC6)CSc6ccccc6)c(S(=O)(=O)C(F)(F)F)c5)cc4)CC3)c2)c(-c2ccc(Cl)cc2)n1C(C)C : what is it?
Return: > 3000 nM

====

// reported viability, T/C for each item listed
System: MPNST complex spheroid with HUVEC/MSC, growth, % test/control
ASSAY NAME: Anticancer human tumor MPNST cell line growth inhibition [Asc];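 also: compounds left on spheroids for seven days before reading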
ASSAY CONTEXT: second compound 0.1 µM; first compound 0.1 µM; stronger effect = lower value
Record the value in %, omitting the unit from your answer.

See these solved cases before continuing.
CCN1CCN(Cc2ccc(Nc3ncc(F)c(-c4cc(F)c5nc(C)n(C(C)C)c5c4)n3)nc2)CC1 + CNC(C)C(=O)NC1CN(S(=O)(=O)c2cccc(S(=O)(=O)N3CCC4CCC(C(=O)NC(c5ccccc5)c5ccccc5)N4C(=O)C(NC(=O)C(C)NC)C3)c2)CCC2CCC(C(=O)NC(c3ccccc3)c3ccccc3)N2C1=O	61.7
C=CC(=O)N1CCN(c2nc(=O)n(-c3c(C)ccnc3C(C)C)c3nc(-c4c(O)cccc4F)c(F)cc23)C(C)C1 (stereo not drawn) + Cc1c(S(C)(=O)=O)c(-c2cc(F)cc(N3CCN(c4ccc(NS(=O)(=O)c5ccc(NC(CCN6CCC(C(=O)OCCCP(=O)(O)O)CC6)CSc6ccccc6)c(S(=O)(=O)C(F)(F)F)c5)cc4)CC3)c2)c(-c2ccc(Cl)cc2)n1C(C)C	74.7

Enquiry: Reported viability, T/C for CCN1CCN(Cc2ccc(Nc3ncc(F)c(-c4cc(F)c5nc(C)n(C(C)C)c5c4)n3)nc2)CC1 + Cc1c(S(C)(=O)=O)c(-c2cc(F)cc(N3CCN(c4ccc(NS(=O)(=O)c5ccc(NC(CCN6CCC(C(=O)OCCCP(=O)(O)O)CC6)CSc6ccccc6)c(S(=O)(=O)C(F)(F)F)c5)cc4)CC3)c2)c(-c2ccc(Cl)cc2)n1C(C)C : what is it?
Return: 78.3

====

// reported IC50 for each item listed
System: MPNST complex spheroid with HUVEC/MSC, growth, % test/control
ASSAY NAME: Anticancer human tumor MPNST cell line growth inhibition [Asc];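 also: compounds left on spheroids for seven days before reading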
ASSAY CONTEXT: curve of first compound; second compound 1 µM
Text: Multicellular complex tumor spheroid response to apoptosis pathway targeting inhibitors Alrizomadlin, Pelcitoclax, and Dasminapant in combination with a variety of drugs and investigational agents in selected tumor cell lines […] Compounds. […] If the clinical Cmax for an agent had not been determined, the highest concentration tested was 10 microM. […]

See these solved cases before continuing.
C=CC(=O)N1CCN(c2nc(=O)n(-c3c(C)ccnc3C(C)C)c3nc(-c4c(O)cccc4F)c(F)cc23)C(C)C1 (stereo not drawn) + CNC(C)C(=O)NC1CN(S(=O)(=O)c2cccc(S(=O)(=O)N3CCC4CCC(C(=O)NC(c5ccccc5)c5ccccc5)N4C(=O)C(NC(=O)C(C)NC)C3)c2)CCC2CCC(C(=O)NC(c3ccccc3)c3ccccc3)N2C1=O	> 10 µM
CCN1C(C(=O)NC23CCC(C(=O)O)(CC2)CC3)C(c2cccc(Cl)c2F)C2(C(=O)Nc3cc(Cl)ccc32)C12CCCCC2 (stereo not drawn) + Cc1c(S(C)(=O)=O)c(-c2cc(F)cc(N3CCN(c4ccc(NS(=O)(=O)c5ccc(NC(CCN6CCC(C(=O)OCCCP(=O)(O)O)CC6)CSc6ccccc6)c(S(=O)(=O)C(F)(F)F)c5)cc4)CC3)c2)c(-c2ccc(Cl)cc2)n1C(C)C	> 3 µM

Now for a further molecule.
Enquiry: Reported IC50 for C=CC(=O)N1CCN(c2nc(=O)n(-c3c(C)ccnc3C(C)C)c3nc(-c4c(O)cccc4F)c(F)cc23)C(C)C1 (stereo not drawn) + Cc1c(S(C)(=O)=O)c(-c2cc(F)cc(N3CCN(c4ccc(NS(=O)(=O)c5ccc(NC(CCN6CCC(C(=O)OCCCP(=O)(O)O)CC6)CSc6ccccc6)c(S(=O)(=O)C(F)(F)F)c5)cc4)CC3)c2)c(-c2ccc(Cl)cc2)n1C(C)C : what is it?
Return: > 10 µM

====

Tested on: MPNST complex spheroid with HUVEC/MSC, growth, % test/control
ASSAY NAME: Anticancer human tumor MPNST cell line growth inhibition [Asc];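 also: compounds left on spheroids for seven days before reading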
ASSAY CONTEXT: second compound 0.1 µM; first compound 0.1 µM; stronger effect = lower value
READOUT LABEL: viability, T/C (%)
Record the value in %, omitting the unit from your answer.

O=C(c1cc(Cc2n[nH]c(=O)c3ccccc23)ccc1F)N1CCN(C(=O)C2CC2)CC1 + CNC(C)C(=O)NC1CN(S(=O)(=O)c2cccc(S(=O)(=O)N3CCC4CCC(C(=O)NC(c5ccccc5)c5ccccc5)N4C(=O)C(NC(=O)C(C)NC)C3)c2)CCC2CCC(C(=O)NC(c3ccccc3)c3ccccc3)N2C1=O	85

Now for a further molecule.
Enquiry: Report viability, T/C for O=C(c1cc(Cc2n[nH]c(=O)c3ccccc23)ccc1F)N1CCN(C(=O)C2CC2)CC1 + Cc1c(S(C)(=O)=O)c(-c2cc(F)cc(N3CCN(c4ccc(NS(=O)(=O)c5ccc(NC(CCN6CCC(C(=O)OCCCP(=O)(O)O)CC6)CSc6ccccc6)c(S(=O)(=O)C(F)(F)F)c5)cc4)CC3)c2)c(-c2ccc(Cl)cc2)n1C(C)C tested on MPNST complex spheroid with HUVEC/MSC, growth, % test/control.
Return: 59.6
